FYI, the data here is from the OPERA property sets (Mansouri et al. 2018).

Conditions: 24.0 °C
metric: log10 OH rate constant (cm³/molecule/s)

Input: Name the recorded log10 OH rate constant (cm³/molecule/s) for FC(F)(Br)Br .
Output: < -15.2

====

Details: 22.0 °C
metric: log10 OH rate constant (cm³/molecule/s)
Number only, no unit.

{"compound": "CCCCSCCCC", "log10 OH rate constant (cm³/molecule/s)": -10.4}

Input: Name the recorded log10 OH rate constant (cm³/molecule/s) for FC(Cl)C(F)(F)C(F)(F)Cl (stereo not drawn) .
Output: -14.1

Input: Let us now turn to C1=Cc2ccccc2C1
Output: -10.3

====

Conditions: 25.0 °C
metric: log10 OH rate constant (cm³/molecule/s)
Number only, no unit.

{"compound": "CSC", "log10 OH rate constant (cm³/molecule/s)": -11.3}
{"compound": "CCCCON=O", "log10 OH rate constant (cm³/molecule/s)": -11.6}
{"compound": "CCON=O", "log10 OH rate constant (cm³/molecule/s)": -12.2}
{"compound": "C1C2C3C2C2C1C32 (configuration not stated)", "log10 OH rate constant (cm³/molecule/s)": -11.7}
{"compound": "C", "log10 OH rate constant (cm³/molecule/s)": -14.2}
{"compound": "CCCCCCCCCCCC", "log10 OH rate constant (cm³/molecule/s)": -10.8}
{"compound": "O=[N+]([O-])C1=CCCCC1", "log10 OH rate constant (cm³/molecule/s)": -10.4}
{"compound": "CCCl", "log10 OH rate constant (cm³/molecule/s)": -12.4}

Input: Name the recorded log10 OH rate constant (cm³/molecule/s) for C=C[N+](=O)[O-] .
Output: -11.9

Input: Let us now turn to C=CC[N+](=O)[O-]
Output: -10.9

====

Settings: 25.0 °C
metric: log10 OH rate constant (cm³/molecule/s)
Number only, no unit.

Here are 5 compounds together with their reported answers.
{"chem-smiles": "CC(C)(C)OO", "log10 OH rate constant (cm³/molecule/s)": -11.5}
{"chem-smiles": "FC(F)(F)C(F)(F)C(Cl)Cl", "log10 OH rate constant (cm³/molecule/s)": -13.6}
{"chem-smiles": "CC#N", "log10 OH rate constant (cm³/molecule/s)": -13.6}
{"chem-smiles": "CON=O", "log10 OH rate constant (cm³/molecule/s)": -12.7}
{"chem-smiles": "CCCCO[N+](=O)[O-]", "log10 OH rate constant (cm³/molecule/s)": -11.8}

Input: Name the recorded log10 OH rate constant (cm³/molecule/s) for CC[N+](=O)[O-] .
Output: -12.8

Input: Let us now turn to CCOCC
Output: -10.9

Input: Let us now turn to CCCCCCCCO
Output: -10.8

====

Conditions: 25.0 °C
Each entry below lists one item and its recorded log10 OH rate constant (cm³/molecule/s) value.

Here are 3 molecules together with their reported answers.
{"chem-smiles": "FC(Br)(Br)Br", "log10 OH rate constant (cm³/molecule/s)": "< -15"}
{"chem-smiles": "FC(F)(F)Br", "log10 OH rate constant (cm³/molecule/s)": "< -16"}
{"chem-smiles": "COS(=O)(=O)OC", "log10 OH rate constant (cm³/molecule/s)": "< -12.3"}

Input: Name the recorded log10 OH rate constant (cm³/molecule/s) for FC(Cl)(Cl)Cl .
Output: < -15.3
